Listing of recorded pIC50 by entry.
# EXPERIMENTAL TARGET: Substance-P receptor (Rattus norvegicus, UniProt P14600)
# Sequence (P14600 whole entry): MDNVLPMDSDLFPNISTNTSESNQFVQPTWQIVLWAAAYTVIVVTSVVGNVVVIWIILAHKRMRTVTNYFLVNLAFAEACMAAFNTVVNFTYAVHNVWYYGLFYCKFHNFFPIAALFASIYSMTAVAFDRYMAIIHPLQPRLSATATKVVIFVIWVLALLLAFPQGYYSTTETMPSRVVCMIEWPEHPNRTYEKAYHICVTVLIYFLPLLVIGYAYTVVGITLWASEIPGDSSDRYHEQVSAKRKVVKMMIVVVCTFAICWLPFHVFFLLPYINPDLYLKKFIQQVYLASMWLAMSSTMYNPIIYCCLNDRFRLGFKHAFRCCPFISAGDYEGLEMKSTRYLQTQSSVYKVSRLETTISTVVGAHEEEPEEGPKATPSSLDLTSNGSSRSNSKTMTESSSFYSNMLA
# ASSAY COMMENT: Displacement of [3H]substance P from rat NK1 receptor expressed in CHO cells
Note on units: pIC50 is unitless, being -log10 of a concentration expressed in mol/L.

{"SMILES REPRESENTATION": "CCCC[C@H](NC(=O)[C@H](Cc1ccccc1)NC(=O)CNC(=O)[C@@H](C)NC(=O)[C@@H](N)Cc1c(C)cc(O)cc1C)C(=O)N1CCC[C@H]1C(=O)N[C@@H](CC(C)C)C(=O)N[C@@H](Cc1c[nH]c2ccccc12)C(=O)NCc1cccc(C(F)(F)F)c1", "EXPERIMENTAL TARGET": "Substance-P receptor (Rattus norvegicus, UniProt P14600)", "pIC50": 6.41}
{"SMILES REPRESENTATION": "CCCC[C@H](NC(=O)[C@H](Cc1ccccc1)NC(=O)CNC(=O)[C@@H](C)NC(=O)[C@@H](N)Cc1c(C)cc(O)cc1C)C(=O)N1CCC[C@H]1C(=O)N[C@@H](CC(C)C)C(=O)N[C@@H](Cc1c[nH]c2ccccc12)C(=O)N(C)Cc1cc(C(F)(F)F)cc(C(F)(F)F)c1", "EXPERIMENTAL TARGET": "Substance-P receptor (Rattus norvegicus, UniProt P14600)", "pIC50": 7.51}
{"SMILES REPRESENTATION": "CSCC[C@H](NC(=O)[C@H](Cc1ccccc1)NC(=O)CNC(=O)[C@@H](C)NC(=O)[C@@H](N)Cc1c(C)cc(O)cc1C)C(=O)N1CCC[C@H]1C(=O)N[C@@H](CC(C)C)C(=O)N[C@@H](Cc1c[nH]c2ccccc12)C(=O)NCc1cc(C(F)(F)F)cc(C(F)(F)F)c1", "EXPERIMENTAL TARGET": "Substance-P receptor (Rattus norvegicus, UniProt P14600)", "pIC50": 8.29}

Query: Looking for the measured pIC50 of CCCC[C@H](NC(=O)[C@H](Cc1ccccc1)NC(=O)CNC(=O)[C@@H](C)NC(=O)[C@@H](N)Cc1c(C)cc(O)cc1C)C(=O)N1CCC[C@H]1C(=O)N[C@@H](CC(C)C)C(=O)N[C@@H](Cc1c[nH]c2ccccc12)C(=O)NCc1ccc(OC)c(OC)c1 , can you help?
Result: 6.05

---

# EXPERIMENTAL TARGET: Substance-P receptor (Cavia porcellus) (UniProt P30547)
# Sequence (P30547 whole entry): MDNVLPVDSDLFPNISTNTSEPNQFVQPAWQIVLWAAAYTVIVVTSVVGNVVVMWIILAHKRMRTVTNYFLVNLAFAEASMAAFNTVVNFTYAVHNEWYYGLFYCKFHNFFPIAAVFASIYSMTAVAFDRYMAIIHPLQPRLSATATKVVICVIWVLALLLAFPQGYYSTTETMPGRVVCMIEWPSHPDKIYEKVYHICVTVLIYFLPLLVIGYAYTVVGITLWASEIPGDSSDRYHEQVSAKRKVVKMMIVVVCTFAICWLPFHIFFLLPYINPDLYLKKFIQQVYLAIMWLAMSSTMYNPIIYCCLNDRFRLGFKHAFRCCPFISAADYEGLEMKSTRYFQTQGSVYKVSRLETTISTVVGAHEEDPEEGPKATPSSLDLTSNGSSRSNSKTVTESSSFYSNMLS
# ASSAY COMMENT: Antagonist activity at NK1 receptor in guinea pig ileum assessed as inhibition of substance P-induced muscle contraction
# Format: functional, tissue-based
QUANTITY NAME: Ke
Returns: string containing the numeric result and its unit.

Below, 2 molecules whose answers are already recorded.
{"SMILES REPRESENTATION": "CCCC[C@H](NC(=O)[C@H](Cc1ccccc1)NC(=O)CNC(=O)[C@@H](C)NC(=O)[C@@H](N)Cc1c(C)cc(O)cc1C)C(=O)N1CCC[C@H]1C(=O)N[C@@H](CC(C)C)C(=O)N[C@@H](Cc1c[nH]c2ccccc12)C(=O)NCc1cccc(C(F)(F)F)c1", "Ke": "14 nM"}
{"SMILES REPRESENTATION": "CCCC[C@H](NC(=O)[C@H](Cc1ccccc1)NC(=O)CNC(=O)[C@@H](C)NC(=O)[C@@H](N)Cc1c(C)cc(O)cc1C)C(=O)N1CCC[C@H]1C(=O)N[C@@H](CC(C)C)C(=O)N[C@@H](Cc1c[nH]c2ccccc12)C(=O)NCc1ccc(OC)c(OC)c1", "Ke": "24 nM"}

Turning to the following molecule.
Query: Looking for the measured Ke of CCCC[C@H](NC(=O)[C@H](Cc1ccccc1)NC(=O)CNC(=O)[C@@H](C)NC(=O)[C@@H](N)Cc1c(C)cc(O)cc1C)C(=O)N1CCC[C@H]1C(=O)N[C@@H](CC(C)C)C(=O)N[C@@H](Cc1c[nH]c2ccccc12)C(=O)NCc1cc(C(F)(F)F)cc(C(F)(F)F)c1 , can you help?
Result: 13 nM
